Test: Stability of cannabinoid entourage and Vitamin E components of the powder concentrate by LCMSMS
Assay type: physicochemical
Conditions: powder stored at 21-25° C.; 5 days
Stability of Plant-Derived Cannabinoid Compounds in Powder Concentrate for assorted compounds
REPORTED_PROPERTY: Stability of Plant-Derived Cannabinoid Compounds in Powder Concentrate (mg/g powder)

| COMPOUND | OUTPUT_UNIT | OBSERVED_MEASUREMENT |
| --- | --- | --- |
| C=C(C)[C@@H]1CCC(C)=C[C@H]1c1c(O)cc(CCC)cc1O | mg/g powder | 0.050 |
| C=C(C)[C@@H]1CCC(C)=C[C@H]1c1c(O)cc(CCCCC)cc1O [CBD, cannabidiol, reference compound] | mg/g powder | 5.84 |
| CCCCCc1cc(O)c(C/C=C(\C)CCC=C(C)C)c(O)c1 | mg/g powder | 1.11 |
| CCCCCc1cc(O)c2c(c1)OC(C)(C)c1ccc(C)cc1-2 | mg/g powder | 0.491 |

---

Assay: Stability of cannabinoid compounds and Vitamin E components in Beverage 2 (AB Red) by LCMSMS
Format: physicochemical
Conditions: stored at 21-25° C., 11 days
REPORTED_PROPERTY: Stability of Plant-Derived Cannabinoid Compounds in AB Red (µg/mL)

| COMPOUND | OBSERVED_MEASUREMENT |
| --- | --- |
| CCCCCc1cc2c(c(O)c1C(=O)O)[C@@H]1C=C(C)CC[C@H]1C(C)(C)O2 [D9 THCA, delta-9-tetrahydrocannabinolic acid] | 1.33 |
| CCCCCc1cc(O)c(C/C=C(\C)CCC=C(C)C)c(O)c1 [CBG, cannabigerol] | 4.72 |
| C=C(C)[C@@H]1CCC(C)=C[C@H]1c1c(O)cc(CCC)cc1O [CBDV, cannabidivarin] | 0.20 |
| CCCCCc1cc(O)c2c(c1)OC1(C)CCC3C1C2C3(C)C (centres unmarked) [CBL, cannabicyclol] | 0.50 |
| CCCCCc1cc(O)c2c(c1)OC(C)(C)[C@@H]1CCC(C)=C[C@@H]21 [D9 THC, delta-9-tetrahydrocannabinol, reference compound] | 12.9 |

---

Assay: Stability of cannabinoid compounds and Vitamin E components in Beverage 2 (AB Red) by LCMSMS
Assay type: physicochemical
Conditions: stored at 21-25° C., 9 days
REPORTED_PROPERTY: Stability of Plant-Derived Cannabinoid Compounds in AB Red

| COMPOUND | OBSERVED_MEASUREMENT |
| --- | --- |
| CCCCCc1cc(O)c2c(c1)OC(C)(CCC=C(C)C)C=C2 (stereo not drawn) | 0.28 µg/mL |
| CCCc1cc(O)c2c(c1)OC(C)(C)[C@@H]1CCC(C)=C[C@@H]21 [THCV, delta-9-tetrahydrocannabivarin] | 3.17 µg/mL |
| CCCCCc1cc2c(c(O)c1C(=O)O)[C@@H]1C=C(C)CC[C@H]1C(C)(C)O2 [D9 THCA, delta-9-tetrahydrocannabinolic acid] | 1.35 µg/mL |
| CCCCCc1cc(O)c2c(c1)OC(C)(C)[C@@H]1CCC(C)=C[C@@H]21 [D9 THC, delta-9-tetrahydrocannabinol, reference compound] | 12.8 µg/mL |
| C=C(C)[C@@H]1CCC(C)=C[C@H]1c1c(O)cc(CCCCC)c(C(=O)O)c1O | 1.63 µg/mL |
| CCCCCc1cc(O)c2c(c1)OC(C)(C)c1ccc(C)cc1-2 | 2.72 µg/mL |
| CCCCCc1cc(O)c2c(c1)OC1(C)CCC3C1C2C3(C)C (stereo not drawn) | 0.51 µg/mL |
| CCCCCc1cc(O)c(C/C=C(\C)CCC=C(C)C)c(O)c1 | 4.74 µg/mL |
| C=C(C)[C@@H]1CCC(C)=C[C@H]1c1c(O)cc(CCC)cc1O | 0.20 µg/mL |
